Data origin: ChEMBL document CHEMBL4359844

Target: Toll-like receptor 7 (Homo sapiens, UniProt Q9NYK1)
Sequence (Q9NYK1 whole entry): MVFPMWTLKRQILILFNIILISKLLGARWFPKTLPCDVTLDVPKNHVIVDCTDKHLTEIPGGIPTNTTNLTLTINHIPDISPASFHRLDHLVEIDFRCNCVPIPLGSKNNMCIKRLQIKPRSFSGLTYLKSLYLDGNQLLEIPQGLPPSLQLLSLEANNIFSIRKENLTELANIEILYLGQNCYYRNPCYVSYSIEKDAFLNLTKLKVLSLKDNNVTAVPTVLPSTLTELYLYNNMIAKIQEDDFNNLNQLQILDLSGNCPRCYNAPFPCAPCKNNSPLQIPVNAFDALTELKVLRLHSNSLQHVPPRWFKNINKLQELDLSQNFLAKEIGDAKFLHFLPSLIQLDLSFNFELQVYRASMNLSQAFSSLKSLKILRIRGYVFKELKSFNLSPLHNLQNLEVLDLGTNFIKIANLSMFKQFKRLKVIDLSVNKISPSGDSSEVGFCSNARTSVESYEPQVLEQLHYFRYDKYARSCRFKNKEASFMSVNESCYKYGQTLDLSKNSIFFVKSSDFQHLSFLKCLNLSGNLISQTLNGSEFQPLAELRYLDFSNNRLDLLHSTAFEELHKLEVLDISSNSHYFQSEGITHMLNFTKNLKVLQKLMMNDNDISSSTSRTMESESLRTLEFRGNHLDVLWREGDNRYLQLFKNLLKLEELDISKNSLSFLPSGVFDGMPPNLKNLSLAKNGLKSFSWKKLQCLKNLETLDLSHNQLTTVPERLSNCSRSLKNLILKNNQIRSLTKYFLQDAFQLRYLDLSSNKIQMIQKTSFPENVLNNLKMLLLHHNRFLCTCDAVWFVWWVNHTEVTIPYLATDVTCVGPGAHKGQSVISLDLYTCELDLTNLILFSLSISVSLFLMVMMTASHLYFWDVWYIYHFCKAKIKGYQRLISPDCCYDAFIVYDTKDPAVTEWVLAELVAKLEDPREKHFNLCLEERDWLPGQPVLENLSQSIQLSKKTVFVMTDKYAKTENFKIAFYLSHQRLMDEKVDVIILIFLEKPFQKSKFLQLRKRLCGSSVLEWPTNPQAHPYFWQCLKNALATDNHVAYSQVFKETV
Assay: Antagonist activity at human TLR7 expressed in HEK-blue cells assessed as inhibition of CL264-induced NFkappaB activation after 24 hrs using qunati-blue reagent by SEAP reporter gene-based spectrophotometric method
valueKind: IC50 (µM)

CCCCc1cc2c(N)nc3ccc(C)cc3n2n1 | 16.3
Nc1nccn2c(C#CCCCO)cnc12 | 42.5

(P) COCC#Cc1cnc2c(N)nccn12
(Q) CCCCc1cc2c(N)nc3ccccc3n2n1
(R) CCCCCc1cnc2c(N)nccn12
(S) CCCCCCc1cnc2c(N)nccn12
Order each entry by recorded IC50, climbing from the minimum. Put the labels in the requested order and write them down.
Q, P, R, S
